FYI, the data here is from the supplement of paper PMC11061612.

// values below are reported Bliss excess
- Tested on: SNU-1 (Gastric Carcinoma)
- experimentDescription: Bliss excess, mean over the matrix (fraction); higher = more synergy
Please respond with just the number, no unit label.

Reference set (3 entries):
compound	Bliss excess
NC1(C(=O)N[C@@H](CCO)c2ccc(Cl)cc2)CCN(c2ncnc3[nH]ccc23)CC1 [Capivasertib] + C[C@@H]1COCCN1C2=NC(=NC(=C2)C3(CC3)[S@](=N)(=O)C)C4=C5C=CNC5=NC=C4 [AZD6738] (first compound max 10 µM, 7x7, partner max 10 µM)	0.0135
COc1nnc2ccc(N3CCC(c4ccc(OCCN5CCN(C)C(=O)[C@H]5C)cc4)CC3)nn12 [AZD5153] + Cn1cnc2c(F)c(Nc3ccc(Br)cc3Cl)c(C(=O)NOCCO)cc21 [Selumetinib] (first compound max 1 µM, 7x7, partner max 10 µM)	0.063
COc1cccc(OCCCN)c1-c1cc(Nc2cnc(C#N)cn2)n[nH]1 [Prexasertib] + C=CCn1c(=O)c2cnc(Nc3ccc(N4CCN(C)CC4)cc3)nc2n1-c1cccc(C(C)(C)O)n1 [AZD1775] (first compound max 1 µM, partner max 1 µM)	0.084

Given the entry CC1(C)CCC(CN2CCN(c3ccc(C(=O)NS(=O)(=O)c4ccc(NCC5CCOCC5)c([N+](=O)[O-])c4)c(Oc4cnc5[nH]ccc5c4)c3)CC2)=C(c2ccc(Cl)cc2)C1 [Venetoclax] + CN(C)CCCOc1ccc(-c2ccc3ncc4c(c3c2)n(C2CCOCC2)c(=O)n4C)cn1 [AZD0156] (first compound max 1 µM, 7x7, partner max 1 µM) , report its measured Bliss excess.
-0.0069

====

- System: JJN-3 (Plasma Cell Myeloma)
- experimentDescription: combination Emax (second highest fraction inhibited in the dose matrix, 72 h); higher = more inhibition; extreme values may be limits of the assay
outcomeMeasure: combination Emax
Please respond with just the number, no unit label.

compound	readoutValue
CC1(C)CCC(CN2CCN(c3ccc(C(=O)NS(=O)(=O)c4ccc(NCC5CCOCC5)c([N+](=O)[O-])c4)c(Oc4cnc5[nH]ccc5c4)c3)CC2)=C(c2ccc(Cl)cc2)C1 [Venetoclax] + Cn1cnc2c(F)c(Nc3ccc(Br)cc3Cl)c(C(=O)NOCCO)cc21 [Selumetinib] (first compound max 1 µM, 7x7, partner max 3 µM)	0.462

Field: combination Emax (JJN-3 (Plasma Cell Myeloma)). Entry: CN(CCO)CC[C@H](CSc1ccccc1)Nc1ccc(S(=O)(=O)NC(=O)c2ccc(N3CCC([C@@H](O)c4ccccc4-c4ccc(Cl)cc4)CC3)cc2)cc1S(=O)(=O)C(F)(F)F [AZD4320] + CCN(CCO)CCCOc1ccc2c(Nc3cc(CC(=O)Nc4cccc(F)c4)[nH]n3)ncnc2c1 [AZD2811] (first compound max 1 µM, 7x7, partner max 1 µM)
0.904

And then CCN(CCO)CCCOc1ccc2c(Nc3cc(CC(=O)Nc4cccc(F)c4)[nH]n3)ncnc2c1 [AZD2811] + C[C@@H]1COCCN1C2=NC(=NC(=C2)C3(CC3)[S@](=N)(=O)C)C4=C5C=CNC5=NC=C4 [AZD6738] (first compound max 1 µM, 7x7, partner max 10 µM) , what is it?
0.566

====

- Test system: SBC-3 (Small Cell Lung Carcinoma)
- experimentDescription: Bliss excess, mean over the matrix (fraction); higher = more synergy
// values below are reported Bliss excess
Please respond with just the number, no unit label.

Reference set (5 entries):
molecule	Bliss excess
Cc1c2c(nn1C)CSCc1cc(n(C)n1)CSc1cc(c3ccccc3c1)OCCCc1c(C(=O)O)n(C)c3c-2c(Cl)ccc13 [AZD5991] + CC1(C)CCC(CN2CCN(c3ccc(C(=O)NS(=O)(=O)c4ccc(NCC5CCOCC5)c([N+](=O)[O-])c4)c(Oc4cnc5[nH]ccc5c4)c3)CC2)=C(c2ccc(Cl)cc2)C1 [Venetoclax] (first compound max 1 µM, 7x7, partner max 1 µM)	0.0727
COc1nnc2ccc(N3CCC(c4ccc(OCCN5CCN(C)C(=O)[C@H]5C)cc4)CC3)nn12 [AZD5153] + CC1(C)CCC(CN2CCN(c3ccc(C(=O)NS(=O)(=O)c4ccc(NCC5CCOCC5)c([N+](=O)[O-])c4)c(Oc4cnc5[nH]ccc5c4)c3)CC2)=C(c2ccc(Cl)cc2)C1 [Venetoclax] (first compound max 1 µM, 7x7, partner max 1 µM)	-0.0545
CS(=O)(=O)CCNCc1ccc(-c2ccc3ncnc(Nc4ccc(OCc5cccc(F)c5)c(Cl)c4)c3c2)o1 [Lapatinib] + C[C@@H](Oc1cc(-c2cnn(C3CCNCC3)c2)cnc1N)c1c(Cl)ccc(F)c1Cl [Crizotinib] (first compound max 10 µM, 7x7, partner max 10 µM)	-0.0761
CCN(CCO)CCCOc1ccc2c(Nc3cc(CC(=O)Nc4cccc(F)c4)[nH]n3)ncnc2c1 [AZD2811] + C=CCn1c(=O)c2cnc(Nc3ccc(N4CCN(C)CC4)cc3)nc2n1-c1cccc(C(C)(C)O)n1 [AZD1775] (first compound max 1 µM, partner max 1 µM)	0.11
CN(CCO)CC[C@H](CSc1ccccc1)Nc1ccc(S(=O)(=O)NC(=O)c2ccc(N3CCC([C@@H](O)c4ccccc4-c4ccc(Cl)cc4)CC3)cc2)cc1S(=O)(=O)C(F)(F)F [AZD4320] + Cn1cnc2c(F)c(Nc3ccc(Br)cc3Cl)c(C(=O)NOCCO)cc21 [Selumetinib] (first compound max 1 µM, 7x7, partner max 3 µM)	-0.0148

Read the next record carefully.
Given the entry C=CCn1c(=O)c2cnc(Nc3ccc(N4CCN(C)CC4)cc3)nc2n1-c1cccc(C(C)(C)O)n1 [AZD1775] + CCc1c2c(nc3ccc(O)cc13)-c1cc3c(c(=O)n1C2)COC(=O)[C@]3(O)CC [SN-38] (first compound max 1 µM, partner max 0.3 µM) , report its measured Bliss excess.
-0.0297
